Reference for the values: PubChem BioAssay AID1321

# TARGET_UNDER_TEST: Wee1-like protein kinase (Homo sapiens)
# EXPERIMENT_DESCRIPTION: Wee1 degradation inhibitors, primary screen, cell-based, HeLa, Wee1K328M-luciferase, luminescence (AID 1321);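 also: cells exposed to compound for 20 h before luminescence read; 0% = DMSO alone and 100% = MG132 at 30 µM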
# CONDITION_CONTEXT: HeLa Luc-Wee1K328M stability, at 5 µM, stronger effect = higher value, 100% = proteasome inhibitor MG132 effect
Hit rate of the full screen: of about 220,000 compounds, about 2,600 (1.2%) were called active. The sample holds actives, similar compounds and a random draw of the others, so the mix is not that of the screen.
The reader will find reported reporter increase values listed item by item below.
The response must be a number in % with no trailing unit.

Below, each entry is followed by its recorded reporter increase result.
CC(=O)Nc1ccc(S(=O)(=O)Nc2nc(-c3ccc(C(C)(C)C)cc3)cs2)cc1; 3.64
O=C(CSc1ccc(/C=N/NC(=O)c2cccc(F)c2)o1)Nc1ccccc1; 9.46
O=C(N/N=C/c1ccc(OCc2ccccc2)cc1)c1ccc(O)cc1; -1.31
COc1ccc(-c2nn(C)c(=O)c3ccccc23)cc1CNC(=O)C1CCCCC1; 0.26
Cc1onc(NC(=O)c2ccc([N+](=O)[O-])o2)c1Br; 0.61
NC(=S)N/N=C/c1coc2cc(Cl)ccc2c1=O; 7.29
O=C(NNc1cc(Cl)cc(Cl)c1)c1c(F)cccc1Cl; 9.07
NS(=O)(=O)c1ccc(CNC(=O)c2cnccn2)cc1; 3.73
Clc1ccc(C[n+]2cc(-c3ccccc3)n3c2CCC3)cc1; -0.29
CC(C)(C)n1nnnc1C(c1cccs1)N(Cc1cccnc1)CC1CCCO1 (stereo not drawn); 4.79

-- ask Given O=C(N/N=C/c1ccc(OCC2COCCO2)cc1)c1ccc(Br)cc1 (stereo not drawn) , respond with its reporter increase.
-- reply 10.9

-- ask Given CCN(CC)CCNC(=O)c1ccc(NC(=O)c2c(F)cccc2Cl)cc1 , respond with its reporter increase.
-- reply 1.18

-- ask Given COc1ccc(Br)cc1/C=N/NC(=O)c1cccc(S(=O)(=O)N2CCOCC2)c1 , respond with its reporter increase.
-- reply 8.21

-- ask Given CC(=O)Nc1ccc(-c2csc(NC(=O)Nc3ccccc3)n2)cc1 , respond with its reporter increase.
-- reply 16.9

-- ask Given COc1ccc(/C=N/NC(=O)CNC(=O)c2ccc(S(=O)(=O)N3CCCC3)cc2)c(OC)c1 , respond with its reporter increase.
-- reply 0.74

-- ask Given c1ccc(-n2cccc2)c(N2CCCCC2)c1 , respond with its reporter increase.
-- reply 3.42

-- ask Given O=C(Cc1ccccc1)Nc1cccc(C(=O)N/N=C/c2ccco2)c1 , respond with its reporter increase.
-- reply -1.22

-- ask Given CSCCC(Nc1nc2ccccc2s1)C(=O)O (stereo not drawn) , respond with its reporter increase.
-- reply 1.41

-- ask Given O=C(O)c1ccc(/C=N/NC(=O)c2ccc(Br)cc2)cc1 , respond with its reporter increase.
-- reply 0.91
